src = patent US20230257396A1

tested on: kinases; assay: KINOMEscan kinase binding assay (Eurofins/DiscoveRx), % Ctrl; settings: 1 μM; EGFR(L747-E749del, A750P)
Can you tell me % Ctrl, EGFR(L747-E749del, A750P) for the items I'm about to list?
Write down the numeric answer in % Ctrl and omit the unit.

Requested read-out % Ctrl, EGFR(L747-E749del, A750P), target or system kinases, entry Cc1cc2c([nH]1)/C=C1\C(=O)Nc3ccc(cc31)-c1cnn(C)c1CN(C)CCN(C)C2=O [Ex. 126]
1.8

Requested read-out % Ctrl, EGFR(L747-E749del, A750P), target or system kinases, entry Cc1cc2c([nH]1)/C=C1\C(=O)Nc3ccc(cc31)-c1cnn(C)c1COCCN(C)C2=O [Ex. 124]
25

Requested read-out % Ctrl, EGFR(L747-E749del, A750P), target or system kinases, entry Cc1cc2c([nH]1)/C=C1\C(=O)Nc3ccc(cc31)-c1ccnn1CCOCCN(C)C2=O [Ex. 41]
87

Requested read-out % Ctrl, EGFR(L747-E749del, A750P), target or system kinases, entry Cc1cc2c([nH]1)/C=C1\C(=O)Nc3cc(Cl)c(cc31)OCCOCCN(C)C2=O [Ex. 131]
31

Requested read-out % Ctrl, EGFR(L747-E749del, A750P), target or system kinases, entry Cc1cc2c([nH]1)/C=C1\C(=O)Nc3ccc(cc31)OCCOCCNC2=O [Ex. 129]
88

Requested read-out % Ctrl, EGFR(L747-E749del, A750P), target or system kinases, entry Cc1cc2c([nH]1)/C=C1\C(=O)Nc3cnc(nc31)N(C)CCCOCCN(C)C2=O [Ex.71]
92
